Tested Target: Mitogen-activated protein kinase kinase kinase kinase 1 (Homo sapiens, UniProt Q92918)
Sequence (Q92918 whole entry): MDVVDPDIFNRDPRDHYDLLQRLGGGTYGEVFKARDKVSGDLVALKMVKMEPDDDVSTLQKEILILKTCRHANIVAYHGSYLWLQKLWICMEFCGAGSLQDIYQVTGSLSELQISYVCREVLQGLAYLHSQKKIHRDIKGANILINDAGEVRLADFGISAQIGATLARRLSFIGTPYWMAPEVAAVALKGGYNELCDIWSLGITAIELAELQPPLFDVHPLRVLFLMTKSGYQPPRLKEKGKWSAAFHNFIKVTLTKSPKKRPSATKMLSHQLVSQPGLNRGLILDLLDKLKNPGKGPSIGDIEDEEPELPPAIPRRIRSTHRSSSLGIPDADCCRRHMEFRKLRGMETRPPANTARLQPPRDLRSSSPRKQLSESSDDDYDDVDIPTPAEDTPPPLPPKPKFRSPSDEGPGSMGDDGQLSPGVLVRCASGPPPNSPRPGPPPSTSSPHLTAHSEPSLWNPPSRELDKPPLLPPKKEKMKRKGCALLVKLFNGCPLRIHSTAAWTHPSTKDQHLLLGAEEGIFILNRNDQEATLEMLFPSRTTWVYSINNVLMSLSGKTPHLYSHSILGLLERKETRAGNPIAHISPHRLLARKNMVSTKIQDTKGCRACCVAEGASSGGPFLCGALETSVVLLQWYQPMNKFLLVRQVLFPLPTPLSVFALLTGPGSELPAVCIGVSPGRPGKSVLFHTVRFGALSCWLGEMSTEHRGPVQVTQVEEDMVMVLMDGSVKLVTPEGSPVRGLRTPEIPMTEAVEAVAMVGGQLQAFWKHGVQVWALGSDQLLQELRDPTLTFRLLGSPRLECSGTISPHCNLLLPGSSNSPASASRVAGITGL
Run Description: HPK1-SLP76 TR-FRET ASSAY
Quantity Name: IC50 (nM)

Below, each entry is followed by its recorded IC50 result.
Compound	IC50 [nM]
Cc1c(-c2cc3nc(Nc4ccc(CS(=O)(=O)C(C)C)cc4)ncc3cc2F)cnc2c1NCCO2	0.08
COc1cc2c(cc1Nc1ncc3ccc(Nc4cccc(C#N)n4)cc3n1)CN(C)CC2	23
COc1cc2c(cc1Nc1ncc3c(N)cc(Nc4cc(CO)ccn4)cc3n1)CN(C)CC2	2.81
CNC(=O)C1(c2ccc(Nc3ncc4cc(F)c(-c5cnc6c(c5C)NCCO6)cc4n3)cc2)CCC1	0.26
COc1cc2c(cc1Nc1ncc3ccc(-c4cncc(NS(C)(=O)=O)c4)cc3n1)CNCC2	183

(A) CC[C@H]1COC(=O)N1c1ccc2cnc(Nc3cc4c(cc3OC)CCN(C)C4)nc2c1
(B) COc1nc(C2(C#N)CC2)ccc1Nc1ncc2c(N)c(F)c(-c3cnc4c(c3C)NCCO4)cc2n1
Prompt: Hi! Which is lower in terms of IC50, the first one A or the second one B ? Pick one; state its label.
Response: B

----------
Tested Target: Mitogen-activated protein kinase kinase kinase kinase 1 (Homo sapiens, UniProt Q92918)
Run Description: HPK1-SLP76 TR-FRET ASSAY
Quantity Name: IC50 (nM)

(P) COc1cc2c(cc1Nc1ncc3c(N)c(F)c(-c4ccccc4-c4ccnn4C)cc3n1)CN(C)CC2
(Q) Cc1c(-c2cc3nc(Nc4ccccc4C4CC4)ncc3c(N)c2F)cnc2c1NCCO2
Prompt: Between these two entries, P and Q , state which has the higher IC50. Pick one; state its label.
Response: P

----------
Tested Target: Mitogen-activated protein kinase kinase kinase kinase 1 (Homo sapiens, UniProt Q92918)
Run Description: HPK1-SLP76 TR-FRET ASSAY
Quantity Name: IC50 (nM)

Below, each entry is followed by its recorded IC50 result.
Molecule	Unit	IC50
Cc1c(-c2cc3nc(Nc4cccc5c4CC(C)(C)N(C)C5)ncc3c(N)c2F)cnc2c1NCCO2	nM	100
COc1cc2c(cc1Nc1ncc3ccc(N4CC(CN)OC4=O)cc3n1)CN(C)CC2 (centres undefined)	nM	82
Cc1c(-c2cc3nc(Nc4ccc5c(c4)CN(C)CC5)ncc3cc2F)cnc2c1NCCO2	nM	0.09

(I) CC(=O)N[C@@H]1CCc2cc(Nc3ncc4c(N)c(F)c(-c5cnc6c(c5C)NCCO6)cc4n3)ccc21
(II) Cc1c(-c2cc3nc(Nc4ccc(C5(S(C)(=O)=O)CC5)cc4)ncc3c(N)c2F)cnc2c1NCCO2
Prompt: Hi! Which is lower in terms of IC50, the first one I or the second one II ? Pick one; state its label.
Response: II

----------
Tested Target: Mitogen-activated protein kinase kinase kinase kinase 1 (Homo sapiens)
Run Description: HPK1-SLP76 TR-FRET ASSAY
pIC50: −log10 of the molar value.
Quantity Name: pIC50

Compound	Tested Target	pIC50
CC(=O)NCc1ccc(Nc2ncc3c(N)c(F)c(-c4cnc5c(c4C)NCCO5)cc3n2)cc1 [WO2022098806, Compound 2-30]	Mitogen-activated protein kinase kinase kinase kinase 1 (Homo sapiens)	10.10
Cc1c(-c2cc3nc(Nc4ccc5c(c4)C4CCC5N4C)ncc3c(N)c2F)cnc2c1NCCO2 (configuration not stated) [WO2022098806, Compound 2-121]	Mitogen-activated protein kinase kinase kinase kinase 1 (Homo sapiens)	10.70

(1) COc1cc2c(cc1Nc1ncc3ccc(-c4cccc(S(=O)(=O)N5CCOCC5)c4)cc3n1)CNCC2 [WO2022098806, Compound 1-77]
(2) Cc1c(-c2cc3nc(Nc4ccc([C@@H]5CCN(C)C5=O)cc4)ncc3c(N)c2F)cnc2c1NCCO2 [WO2022098806, Compound 2-146]
Prompt: Between these two entries, 1 and 2 , state which has the higher pIC50. Pick one; state its label.
Response: 2

(1) COc1cc2c(cc1Nc1ncc3ccc(Nc4cccc(CO)c4)cc3n1)CN(C)CC2 [WO2022098806, Compound 3-31]
(2) Cc1c(-c2cc3nc(Nc4ccc5c(c4)CN(C)CC5)ncc3c(N)c2F)cnc2c1NCC(C)(C)O2 [WO2022098806, Compound 2-166]
Prompt: Hi! Which is lower in terms of pIC50, the first one 1 or the second one 2 ? Pick one; state its label.
Response: 1

----------
Tested Target: Mitogen-activated protein kinase kinase kinase kinase 1 (Homo sapiens, UniProt Q92918)
Run Description: HPK1-SLP76 TR-FRET ASSAY
pIC50: −log10 of the molar value.
Quantity Name: pIC50

Below, each entry is followed by its recorded pIC50 result.
Molecule	pIC50
CNC(=O)Cc1ccc(Nc2ncc3cc(F)c(-c4cnc5c(c4C)NCCO5)cc3n2)cc1	10.15
Cc1c(-c2cc3nc(Nc4ccc5c(c4)CN(C)CC5)ncc3c(N)c2F)cnc2cc[nH]c12	10.00
COc1cc(C2CC2)ccc1Nc1ncc2c(N)c(F)c(-c3cnc4c(c3C)NCCO4)cc2n1	7.77
CC(=O)N[C@H]1CCc2cc(Nc3ncc4c(N)c(F)c(-c5cnc6c(c5C)NCCO6)cc4n3)ccc21	10.10
Cc1c(-c2cc3nc(Nc4ccc([C@H]5CCN(C)C5=O)cc4)ncc3c(N)c2F)cnc2c1NCCO2	10.10
Cc1c(-c2cc3nc(Nc4ccc(CC(=O)N(C)C)cc4)ncc3cc2F)cnc2c1NCCO2	9.89
Cc1ccncc1-c1cc2nc(Nc3ccc(CS(C)(=O)=O)cc3)ncc2c(N)c1F	9.72
Cc1c(-c2c(F)c(N)c3cnc(Nc4cc5c(cc4F)CCN(C)C5)nc3c2Cl)cnc2c1NCCO2	10.05
COc1cc2c(cc1Nc1ncc3ccc(N4CC(CO)OC4=O)cc3n1)CN(C)CC2 (stereo unspecified)	8.03

(A) CCc1ccc(Nc2ncc3c(N)c(F)c(-c4cnc5c(c4C)NCCO5)cc3n2)cn1
(B) CNC(=O)c1ccc(Nc2ncc3c(N)c(F)c(-c4cnc5c(c4C)NCCO5)c(Cl)c3n2)c(OC)c1
Prompt: Hi! Which is lower in terms of pIC50, the first one A or the second one B ? Pick one; state its label.
Response: B

----------
Tested Target: Mitogen-activated protein kinase kinase kinase kinase 1 (Homo sapiens, UniProt Q92918)
Run Description: HPK1-SLP76 TR-FRET ASSAY
Quantity Name: IC50 (nM)

Molecule	Tested Target	IC50 (nM)
COc1cc2c(cc1Nc1ncc3c(N)c(F)c(-c4cnc5c(c4C)NCCO5)cc3n1)[C@H](C)N(C)CC2 [WO2022098806, Compound 2-36]	Mitogen-activated protein kinase kinase kinase kinase 1 (Homo sapiens, UniProt Q92918)	0.1
Cc1c(-c2cc3nc(Nc4ccc5c(c4)CN(CC(C)(C)O)C5=O)ncc3c(N)c2F)cnc2c1NCCO2 [WO2022098806, Compound 2-42]	Mitogen-activated protein kinase kinase kinase kinase 1 (Homo sapiens, UniProt Q92918)	0.15
Cc1c(-c2cc3nc(Nc4cc5c(cc4F)CCN(C(C)C)C5)ncc3c(N)c2F)cnc2c1NCCO2 [WO2022098806, Compound 2-171]	Mitogen-activated protein kinase kinase kinase kinase 1 (Homo sapiens, UniProt Q92918)	0.05
COc1cc2c(cc1Nc1ncc3ccc(N4CC5(CCOC5)OC4=O)cc3n1)CN(C)CC2 (centres undefined) [WO2022098806, Compound 3-3]	Mitogen-activated protein kinase kinase kinase kinase 1 (Homo sapiens, UniProt Q92918)	391
Cc1c(-c2cc3nc(Nc4cnc5c(c4)CN(C)CC5)ncc3c(N)c2F)cnc2c1NCCO2 [WO2022098806, Compound 2-183]	Mitogen-activated protein kinase kinase kinase kinase 1 (Homo sapiens, UniProt Q92918)	0.04

(A) Cc1c(-c2cc3nc(Nc4ccc(CS(=O)(=O)C5CC5)cc4)ncc3c(N)c2F)cnc2c1NCCO2 [WO2022098806, Compound 2-136]
(B) COc1cc2c(cc1Nc1ncc3c(N)c(F)c(-c4cnc5c(c4C)NCCO5)c(Cl)c3n1)CN(C(C)C)CC2 [WO2022098806, Compound 2-106]
(C) CC[C@@H]1COC(=O)N1c1cc(N)c2cnc(Nc3cc4c(cc3OC)CCN(C)C4)nc2c1 [WO2022098806, Compound 3-15]
Prompt: Sort these molecules on IC50 so the largest reading comes first. # the answer lists labels in the order requested
Response: C, A, B
(C: 3.24 nM, A: 0.1 nM, B: 0.07 nM)

(1) Cc1c(-c2cc3nc(Nc4ccc(CC(=O)N5CCOCC5)cc4)ncc3cc2F)cnc2c1NCCO2 [WO2022098806, Compound 1-133]
(2) CNC(=O)[C@H]1CCc2cc(Nc3ncc4cc(F)c(-c5cnc6c(c5C)NCCO6)cc4n3)ccc21 [WO2022098806, Compound 1-119]
(3) CNS(=O)(=O)c1cccc(Nc2ncc3c(N)c(F)c(-c4cnc5c(c4C)NCCO5)cc3n2)c1 [WO2022098806, Compound 2-34]
(4) Cc1ccc(F)cc1-c1cc2nc(Nc3ccc(CS(C)(=O)=O)cc3)ncc2c(N)c1F [WO2022098806, Compound 2-172]
Prompt: Sort these molecules on IC50 so the largest reading comes first. # the answer lists labels in the order requested
Response: 4, 2, 3, 1

(I) COc1cc2c(cc1Nc1ncc3c(N)c(F)c(-c4cnc5c(c4C)NCCO5)c(Cl)c3n1)CN(C)CC21CC1 [WO2022098806, Compound 2-169]
(II) COc1cc2c(cc1Nc1ncc3c(N)c(F)c(-c4cc5oc(=O)[nH]c5cc4C)cc3n1)CN(C)CC2 [WO2022098806, Compound 2-49]
Prompt: Between these two entries, I and II , state which has the higher IC50. Pick one; state its label.
Response: II
